- assayProtocol: S16 Schwann cell PMP22 intronic element firefly luciferase assay (AID 624032); also: nearly all actives have a fitted effect of over 30% in size
- particulars: S16 rat Schwann cells, PMP22 element FLuc, 24 h; series mostly up to 57.5 µM
Records with an inconclusive call do not appear. The source made the active and inactive calls. Calls follow the shape of the dose curve; as a rule, active = well fitted inhibition curve with a large enough effect; inconclusive = small, poorly fitted or top-dose-only effect; inactive = no such curve, though single readings can be large or run the other way.
Please reply with one of these outcomes: active, inactive

>  <compound>
CC(=O)Nc1ccc(NC(=S)NC(=O)c2ccc(C(C)(C)C)cc2)cc1

>  <assignedClass>
inactive

$$$$
>  <compound>
OCl

>  <assignedClass>
inactive

$$$$
>  <compound>
COc1ccc(/C=C/C(=O)O)cc1

>  <assignedClass>
inactive

$$$$
>  <compound>
CC/C=C\C/C=C\C/C=C\C/C=C\C/C=C\CCCC(=O)O

>  <assignedClass>
inactive

$$$$
>  <compound>
CN(C)c1ccc(C(=C2C=CC(=[N+](C)C)C=C2)c2c(O)c(S(=O)(=O)[O-])cc3cc(S(=O)(=O)O)ccc23)cc1

>  <assignedClass>
active

$$$$

Input line: Just curious, what result did CC(=O)Oc1cc(C(F)(F)F)ccc1C(=O)O get here?
Output line: inactive

Input line: In this assay, the call recorded for NC(=S)N=Nc1ccc(NN=C(N)N)cc1 was what?
Output line: inactive

Input line: Kindly provide the recorded test outcome for the following compound: Cc1cc(-c2ccc(N=Nc3c(S(=O)(=O)O)cc4cc(S(=O)(=O)O)cc(N)c4c3O)c(C)c2)ccc1N=Nc1c(S(=O)(=O)O)cc2cc(S(=O)(=O)O)cc(N)c2c1O
Output line: active

Input line: Outcome logged for C[Si](C)(C)O[Si](C)(C)C in this assay:
Output line: inactive

Input line: Fill in: this test's call for OC1OC[C@@H](O)[C@H](O)[C@@H]1O (some centres not stated) is ___
Output line: inactive

---

- Tested on: GB4
- assayProtocol: qHTS profiling for inhibitors of Plasmodium falciparum proliferation (AID 504749); also: nearly all actives have a fitted effect of over 60% in size
- particulars: P. falciparum in erythrocytes, SYBR Green DNA, 72 h; series mostly up to 28.7 µM
Results filed as inconclusive are left out. Activity calls are given as the source filed them. Calls come from the whole dose curve; as a rule, active = well fitted inhibition curve with a large enough effect; inconclusive = small, poorly fitted or top-dose-only effect; inactive = flat fitted curve, though single readings scatter.
Pick one: active, inactive

For orientation, consider the following solved cases.
>  <molecule>
CC1C(=O)CC2C3(C)CCC2(C(C)C(=O)O)C(=O)C13 (stereo unspecified)

>  <assignedClass>
inactive

$$$$
>  <molecule>
NCC(O)CC(=O)O (stereo unspecified)

>  <assignedClass>
inactive

$$$$
>  <molecule>
CC(CNC(=O)c1cccnc1)NC(=O)c1cccnc1 (stereo unspecified)

>  <assignedClass>
inactive

$$$$
>  <molecule>
O=C(O)COc1ccccc1/C=N/NC(=O)c1ccncc1

>  <assignedClass>
inactive

$$$$

Input line: Could you please tell me the result logged for O=C(O)/C=C/C(=O)Nc1ccc(S(=O)(=O)Nc2nccs2)cc1 in this assay?
Output line: inactive

Input line: Identify the outcome logged in this assay for the molecule shown: CCc1ncnc2cc(OC)c(OC)cc12
Output line: inactive

Input line: For CCN(CC)CCOc1ccc2nc(N(C)C)sc2c1 , which call appears in the assay record?
Output line: inactive

Input line: Just curious, what result did CCOC(=O)c1c[nH]c2cc(OCC(C)C)c(OCC(C)C)cc2c1=O get here?
Output line: active

Input line: What outcome does the record of this test show for COC(=O)c1ccccc1O ?
Output line: inactive

Input line: Called result for CCCc1nc(C(C)(C)O)c(C(=O)OCc2oc(=O)oc2C)n1Cc1ccc(-c2ccccc2-c2nn[nH]n2)cc1
Output line: inactive

Input line: What call does the record list for Cc1cc2nc3c(=O)[nH]c(=O)nc-3n(C[C@H](O)[C@H](O)[C@H](O)COP(=O)(O)OP(=O)(O)OC[C@H]3O[C@@H](n4cnc5c(N)ncnc54)[C@H](O)[C@@H]3O)c2cc1C ?
Output line: inactive

Input line: GET /call?item= COC(=O)C(CN)c1c[nH]c2ccc(OC)cc12 (stereo unspecified) returns the recorded outcome of this test.
Output line: inactive

Input line: Returns: the outcome recorded for Nc1ncnc2c1ncn2[C@H]1CC[C@@H](CO)O1 in this assay.
Output line: inactive

Input line: Assay outcome for NC(=O)[C@@H]1CCCN1C(=O)[C@H](Cc1cnc[nH]1)NC(=O)[C@@H]1CCC(=O)N1 : what was it?
Output line: inactive

Input line: Just curious, what result did O=S(=O)(O)CCCS(=O)(=O)O get here?
Output line: inactive

Input line: Which outcome was entered for the molecule CCOC(=S)SSC(=S)OCC in this test?
Output line: inactive

---

- Test system: ECU
- assayProtocol: qHTS profiling for inhibitors of Plasmodium falciparum proliferation (AID 504749); also: nearly all actives have a fitted effect of over 60% in size
- particulars: P. falciparum in erythrocytes, SYBR Green DNA, 72 h; series mostly up to 28.7 µM
Results filed as inconclusive are left out. Calls of active or inactive are those of the source. The call rests on the fitted dose curve; in most records, active means well fitted inhibition curve with a large enough effect; inconclusive means small, poorly fitted or top-dose-only effect; inactive means flat fitted curve, though single readings scatter.
Hi there, use one of these labels in your reply, thanks! active, inactive

>  <compound>
Cn1cc(NC(=O)c2cc(NC(=O)c3cc(NC=O)cn3C)cn2C)cc1C(=O)NCCC(=N)N

>  <assignedClass>
active

$$$$
>  <compound>
CC(CNC(=O)c1cccnc1)NC(=O)c1cccnc1 (configuration not stated)

>  <assignedClass>
inactive

$$$$

Input line: # fetch the recorded call for CCCCC/C=C\C/C=C\C/C=C\CCCCC(=O)O here
Output line: inactive

Input line: Which result was noted for this compound in the test: Cc1cc(-c2ccc(N=Nc3c(S(=O)(=O)O)cc4cc(S(=O)(=O)O)cc(N)c4c3O)c(C)c2)ccc1N=Nc1c(S(=O)(=O)O)cc2cc(S(=O)(=O)O)cc(N)c2c1O
Output line: inactive

Input line: Recorded test outcome, item CO
Output line: inactive

Input line: For C=C1C(CCl)(CCl)C2(Cl)C(Cl)C(Cl)C1(Cl)C2(Cl)Cl (configuration not stated) , which call appears in the assay record?
Output line: active

---

- assayProtocol: P-glycoprotein substrates identified in KB-8-5-11 adenocarcinoma cell line, qHTS therapeutic library screen (AID 1346987); also: nearly all actives have a fitted effect of over 65% in size
- particulars: KB-8-5-11 (P-gp overexpressing) viability, CellTiter-Glo, 72 h; series mostly up to 44.5 µM
Results filed as inconclusive are left out. The source made the active and inactive calls. The call rests on the fitted dose curve; in most records, active means well fitted inhibition curve with a large enough effect; inconclusive means small, poorly fitted or top-dose-only effect; inactive means flat fitted curve, though single readings scatter.
Can you answer with just one of these options? 1 for active, -1 for inactive

>  <compound>
CCN(CC)C(=S)S

>  <assignedClass>
-1

$$$$
>  <compound>
CC[C@@H]1/C=C(\C)C[C@H](C)C[C@H](OC)[C@H]2O[C@@](O)(C(=O)C(=O)N3CCCC[C@H]3C(=O)O[C@H](/C(C)=C/[C@@H]3CC[C@@H](Cl)[C@H](OC)C3)[C@H](C)[C@@H](O)CC1=O)[C@H](C)C[C@@H]2OC

>  <assignedClass>
-1

$$$$
>  <compound>
CCOC(=O)Oc1c(OC)cc(C(=O)O[C@@H]2C[C@@H]3CN4CCc5c([nH]c6cc(OC)ccc56)[C@H]4C[C@@H]3[C@H](C(=O)OC)[C@H]2OC)cc1OC

>  <assignedClass>
-1

$$$$

Input line: What call does the record list for COc1ccc(C(=O)CCC(=O)O)c2ccccc12 ?
Output line: -1

Input line: Record lookup: outcome of this test for CC(C)(COP(=O)(O)OP(=O)(O)OC[C@H]1O[C@@H](n2cnc3c(N)ncnc32)[C@H](O)[C@@H]1OP(=O)(O)O)C(O)C(=O)NCCC(=O)NCCS (stereo partly specified) ?
Output line: -1

Input line: What outcome does the record of this test show for C=CC1=C(C(=O)O)N2C(=O)[C@@H](NC(=O)/C(=N/OCC(=O)O)c3csc(N)n3)[C@H]2SC1 (stereo in doubt) ?
Output line: -1

Input line: Per the assay record, what outcome was assigned to C[C@]12CCC(=O)C[C@@H]1CC[C@@H]1[C@@H]2CC[C@]2(C)C=CC[C@@H]12 ?
Output line: -1

Input line: Please indicate how the test categorized Cc1ncc(COP(=O)(O)O)c(CN)c1O .
Output line: -1

Input line: So what was the verdict on CC(C)OC(=O)Nc1ccc2nc(-c3cscn3)[nH]c2c1 in this test?
Output line: 1

Input line: Could you please tell me the result logged for NCC[C@H](O)C(=O)N[C@@H]1C[C@H](N)[C@@H](O[C@H]2O[C@H](CN)[C@@H](O)[C@H](O)[C@H]2O)[C@H](O)[C@H]1O[C@H]1O[C@H](CO)[C@@H](O)[C@H](N)[C@H]1O in this assay?
Output line: -1

Input line: Any idea what this test logged for O=c1[nH]c(=O)n([C@H]2C[C@H](O)[C@@H](CO)O2)cc1/C=C/Br ?
Output line: -1

Input line: Dear colleague, could you share the recorded outcome for OCc1ccccc1 when you have a moment?
Output line: -1

Input line: For this compound, state the assay outcome: CCCCC(CC)CCC(CC(C)C)OS(=O)(=O)O (stereo unspecified)
Output line: -1

Input line: For CN[C@@H]1[C@@H](O[C@H]2O[C@H](CO)[C@@H](N)[C@H](O)[C@H]2O)O[C@H]2C[C@@H](N)[C@@H](O[C@H]3[C@H](O)[C@@H](O)[C@H](N)C[C@@H]3N)O[C@@H]2[C@@H]1O , what call appears in the results of this test?
Output line: -1

Input line: Hi, do you know how CCCC(=O)Nc1c(I)cc(I)c(CC(CC)C(=O)O)c1I (stereo unspecified) came out in this test?
Output line: -1

Input line: Per the assay record, what outcome was assigned to CC(C)(C)C(=O)OCC(=O)[C@H]1CC[C@H]2[C@@H]3CCC4=CC(=O)CC[C@]4(C)[C@H]3CC[C@]12C ?
Output line: -1

Input line: Hello, I am checking results. What call was entered for NC[C@@H]1CC[C@@H](N)[C@@H](O[C@H]2[C@H](O)[C@@H](O[C@H]3O[C@H](CO)[C@@H](O)[C@H](N)[C@H]3O)[C@H](N)C[C@@H]2N)O1 ?
Output line: -1

Input line: Which outcome was assigned to CC[C@@H](C)[C@H](N)C(=O)O in this test?
Output line: -1

Input line: Short answer needed: outcome of this test for CC(C)C[C@H](NC(=O)[C@@H](Cc1c[nH]c2ccccc12)NC(=O)[C@H](Cc1ccc(O)cc1)NC(=O)[C@H](CO)NC(=O)[C@H](Cc1c[nH]c2ccccc12)NC(=O)[C@H](Cc1cnc[nH]1)NC(=O)[C@@H]1CCC(=O)N1)C(=O)N[C@@H](CCCN=C(N)N)C(=O)N1CCC[C@@H]1C(=O)NCC(N)=O ?
Output line: -1

Input line: Short answer needed: outcome of this test for CC(O)[C@@H]1NC(=O)[C@H](Cc2ccccc2)NC(=O)[C@H](C(C)O)NC(=O)[C@H](CCCCN)NC(=O)[C@H](Cc2c[nH]c3ccccc23)NC(=O)[C@H](Cc2ccccc2)NC(=O)[C@H](Cc2ccccc2)NC(=O)[C@H](CC(N)=O)NC(=O)[C@H](CCCCN)NC(=O)[C@@H](NC(=O)CNC(=O)[C@H](C)N)CSSC[C@@H](C(=O)O)NC(=O)[C@H](CO)NC1=O (stereo partly specified) ?
Output line: -1

Source: PubChem BioAssay (NCATS)
